All values here come from patent US20260248787A9.

# Experiment summary: Phase 1/2 clinical study, plasma pharmacokinetic evaluation
# Format: in vivo, human
# Measurement context: human, plasma, oral, 120 mg, 120 mg BID Arm A, C2D1, N=6, mean

Structure notation: C=C1C[C@@H]2CC[C@H]1[C@@H](C(=O)N1CCC3(CC1)CN(c1ncncc1Oc1ccc(F)cc1C(=O)N(C(C)C)C(C)C)C3)N2
Tmax: 1.2 h

====

# Experiment summary: Phase 1/2 clinical study, plasma pharmacokinetic evaluation
# Type: in vivo, human
# Measurement context: human, plasma, oral, 200 mg, Cycle 1 Day 1; 200 mg BID Arm A (without azole); N=5; mean

Structure notation: C=C1C[C@@H]2CC[C@H]1[C@@H](C(=O)N1CCC3(CC1)CN(c1ncncc1Oc1ccc(F)cc1C(=O)N(C(C)C)C(C)C)C3)N2
Cmax: 3870 ng/mL

====

# Experiment summary: Phase 1/2 clinical study, plasma pharmacokinetic evaluation
# Assay type: in vivo, human
# Measurement context: human, plasma, oral, 100 mg, 100 mg BID Arm A, C2D1, N=1
Reported property: Cmax (ng/mL)

Structure notation: C=C1C[C@@H]2CC[C@H]1[C@@H](C(=O)N1CCC3(CC1)CN(c1ncncc1Oc1ccc(F)cc1C(=O)N(C(C)C)C(C)C)C3)N2
Endpoint unit: ng/mL
Observed value: 2840

====

# Experiment summary: Phase 1/2 clinical study, plasma pharmacokinetic evaluation
# Format: in vivo, human
# Measurement context: human, plasma, oral, 140 mg, 140 mg BID Arm A, Cycle 1 Day 1, N=6 (incl. two patients with MDS), mean

Structure notation: C=C1C[C@@H]2CC[C@H]1[C@@H](C(=O)N1CCC3(CC1)CN(c1ncncc1Oc1ccc(F)cc1C(=O)N(C(C)C)C(C)C)C3)N2
Cmax: 1480 ng/mL

====

# Experiment summary: Phase 1/2 clinical study, plasma pharmacokinetic evaluation
# Assay type: in vivo, human
# Measurement context: human, plasma, oral, 100 mg, 100 mg BID Arm A, C2D1, N=1; read-out: t1/2 (converted)

Molecule: C=C1C[C@@H]2CC[C@H]1[C@@H](C(=O)N1CCC3(CC1)CN(c1ncncc1Oc1ccc(F)cc1C(=O)N(C(C)C)C(C)C)C3)N2 [the present compound]
Endpoint unit: h
half-life: 2.88

====

# Experiment summary: Phase 1/2 clinical study, plasma pharmacokinetic evaluation
# Format: in vivo, human
# Measurement context: human, plasma, oral, 80 mg, Table 15 cut-off; 80 mg BID Arm A, Cycle 1 Day 1, N=4, mean

Molecule: C=C1C[C@@H]2CC[C@H]1[C@@H](C(=O)N1CCC3(CC1)CN(c1ncncc1Oc1ccc(F)cc1C(=O)N(C(C)C)C(C)C)C3)N2 [the present compound]
Cmax / µg/mL: 1.62

====

# Experiment summary: Phase 1/2 clinical study, plasma pharmacokinetic evaluation
# Type: in vivo, human
# Measurement context: human, plasma, oral, 40 mg, 40 mg BID Arm A, C2D1, N=1

Structure notation: C=C1C[C@@H]2CC[C@H]1[C@@H](C(=O)N1CCC3(CC1)CN(c1ncncc1Oc1ccc(F)cc1C(=O)N(C(C)C)C(C)C)C3)N2
Endpoint unit: h
Tmax: 2

====

# Experiment summary: Phase 1/2 clinical study, plasma pharmacokinetic evaluation
# Format: in vivo, human
# Measurement context: human, plasma, oral, 100 mg, 100 mg BID Arm B, Cycle 1 Day 1, N=4, mean

Molecule: C=C1C[C@@H]2CC[C@H]1[C@@H](C(=O)N1CCC3(CC1)CN(c1ncncc1Oc1ccc(F)cc1C(=O)N(C(C)C)C(C)C)C3)N2 [the present compound]
Endpoint unit: ng/mL
Cmax: 1650
